- system name: human 5-HT3 serotonin receptors (Homo sapiens)
- Sequence (P46098 24-478): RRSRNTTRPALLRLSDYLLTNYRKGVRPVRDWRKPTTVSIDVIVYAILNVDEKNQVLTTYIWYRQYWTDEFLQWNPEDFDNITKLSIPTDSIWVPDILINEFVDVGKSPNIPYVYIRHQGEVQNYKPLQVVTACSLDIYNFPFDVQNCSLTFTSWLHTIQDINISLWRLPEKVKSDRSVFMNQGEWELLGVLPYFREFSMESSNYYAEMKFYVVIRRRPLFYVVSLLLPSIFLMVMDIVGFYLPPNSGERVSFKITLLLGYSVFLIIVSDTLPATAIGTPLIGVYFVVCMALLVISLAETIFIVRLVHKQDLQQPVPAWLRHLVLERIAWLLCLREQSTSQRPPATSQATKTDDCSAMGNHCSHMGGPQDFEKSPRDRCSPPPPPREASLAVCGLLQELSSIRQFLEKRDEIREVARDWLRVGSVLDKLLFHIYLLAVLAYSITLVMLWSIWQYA
- protocol notes: biochemical
- Type: binding
- condition label: CHO cell membranes expressing human 5-HT3 receptors, [3H]BRL 43694, 120 min at room temperature; read-out: h-5HT3 Ki
Counter-ions that a name gives are not always drawn.
metric name: Ki

As a guide, the following entries are already answered.
• Cc1coc2cc(NC3=NO[C@@]4(C3)CN3CCC4CC3)ccc12 [(R)-74, hydrochloride] = > 10000 nM
• c1ccc2c(NC3=NOC4(C3)CN3CCC4CC3)n[nH]c2c1 (racemic) [Compound 5-P1] = 750 nM
• Clc1cccc2cc(NC3=NO[C@@]4(C3)CN3CCC4CC3)ncc12 [(R)-23, hydrochloride] = 1200 nM
• c1cc2nc(NC3=NOC4(C3)CN3CCC4CC3)sc2cc1C1CC1 (single isomer, unassigned) [Compound 15-P1] = > 10000 nM
• Cc1cc2ccc(NC3=NO[C@@]4(C3)CN3CCC4CC3)nc2s1 [(R)-53, hydrochloride] = > 10000 nM

Exam item: Need Ki of c1ccc2sc(NC3=NOC4(C3)CN3CCC4CC3)cc2c1 (racemic) [rac-12] , thanks.
Marked response: 1800 nM

Exam item: GET /values?readout=Ki&item= Cn1ncc2cc(NC3=NO[C@@]4(C3)CN3CCC4CC3)ccc21 [(R)-65, hydrochloride]
Marked response: > 10000 nM

Exam item: # input compound: COc1ccc2nc(NC3=NOC4(C3)CN3CCC4CC3)sc2c1 (single isomer, unassigned) [Compound 4-P2] ; wanted: its Ki
Marked response: > 10000 nM

The reported numbers originate from patent US20170247393A1.
